tested on: UMB1949 (TSC2-deficient); experiment: relative viability vs DMSO (fraction); higher = less cytotoxic; details: 1000 nM; serum: 0.1% FBS; 72 h;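 also: renal angiomyolipoma cell lines screened in 384-well plates, viability normalized per plate to DMSO-treated cells, each plate carrying 50 nM rapamycin and 1 µM staurosporine controls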
PROPERTY LABEL: relative viability

INSERT INTO assay_data (molecule, obs_value) VALUES
  ('CCC[C@H](NC(=O)/C(C#N)=C/c1cccc(Br)n1)c1ccccc1 [WP1130]', 0.00218),
  ('CCS(=O)(=O)c1cccc(-c2cc(C(=O)NC3CCN(C)CC3)c(C)c3[nH]c4ncc(C)cc4c23)c1 [TAK-901]', 0.00175),
  ('CC[C@@]1(O)C(=O)OCc2c1cc1n(c2=O)Cc2cc3ccccc3nc2-1 [Camptothecin]', 0.00182),
  ('CCc1cccc(CC)c1NC(=O)N1Cc2[nH]nc(NC(=O)c3ccc(N4CCN(C)CC4)cc3)c2C1', 0.00148);
